Target: recombinant human pancreatic lipase related protein 2 (hPLRP2) (Homo sapiens)
Sequence (P54317 18-469): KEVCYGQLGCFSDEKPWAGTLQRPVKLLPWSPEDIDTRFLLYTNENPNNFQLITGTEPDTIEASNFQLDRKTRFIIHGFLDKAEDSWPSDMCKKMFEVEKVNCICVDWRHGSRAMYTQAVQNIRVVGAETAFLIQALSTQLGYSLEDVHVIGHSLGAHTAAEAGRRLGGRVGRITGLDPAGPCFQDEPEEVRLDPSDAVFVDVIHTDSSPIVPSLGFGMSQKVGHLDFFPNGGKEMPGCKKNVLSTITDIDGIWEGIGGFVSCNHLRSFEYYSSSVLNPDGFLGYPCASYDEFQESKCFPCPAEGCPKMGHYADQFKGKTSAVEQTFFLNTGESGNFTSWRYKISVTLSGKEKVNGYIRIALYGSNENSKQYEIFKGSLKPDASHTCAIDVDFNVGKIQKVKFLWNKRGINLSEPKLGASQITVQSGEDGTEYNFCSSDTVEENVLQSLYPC
Experiment: FFA generation by recombinant hPLRP2
Conditions: % FFA generation; read-out: IC50 against hPLRP2
pIC50: −log10 of the molar value.
metric: pIC50

Report measured pIC50; entry is CCCCCCCCCCC[C@@H](C[C@@H]1OC(=O)[C@H]1CC)OC(=O)[C@H](C)NC=O
≥ 5.70
